# TESTED TARGET: T1, membrane-bound B Lymphocyte Stimulator on U937 plasma membrane preparations (human, UniProt Q9Y275 1-285)
# T1 construct: Natural protein in plasma membrane fractions of the human cell line U937 coated on ELISA plates; also called U937 plasma membranes; U937 membranes
# T1 sequence (Q9Y275 whole entry): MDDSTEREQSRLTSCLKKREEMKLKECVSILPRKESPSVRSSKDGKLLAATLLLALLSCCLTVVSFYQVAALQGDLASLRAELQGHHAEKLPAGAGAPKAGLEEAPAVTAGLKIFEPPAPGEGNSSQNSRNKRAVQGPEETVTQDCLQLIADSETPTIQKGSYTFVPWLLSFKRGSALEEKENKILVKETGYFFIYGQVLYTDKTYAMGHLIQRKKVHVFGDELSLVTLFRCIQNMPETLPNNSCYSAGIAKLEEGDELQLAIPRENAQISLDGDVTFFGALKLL
# TEST NAME: phage ELISA
MEASUREMENT NAME: binding result

Query block: Looking for the measured binding result of I051C04 (scFv, also called 1051C04) scFv: QVQLQQSGAEVKKPGSSVKVSCRTSGGTFSNYGLSWVRQAPGQGLEWMGGVIPISSTIKYGQKFQDRLTIAADDLTNTTFMELSSLRPEDTAVYYCARAATTSQKHNKYAYYFYGMDVWGQGTMVTVSSGGGGSGGGGSGGGGSAQSALTQPASVSGSPGQSITISCTGTSSDVGGYNYVSWYQQHPGKAPKLMIYEVSNRPSGVSNRFSGSKSGNTASLTISGLQAEDEADYYCSSYTSSSTLVFGGGTKVTVLG , can you help?
Result block: binds

Query block: Looking for the measured binding result of I017D10 (scFv) scFv: RVQLVQSGAEVKKPGASVKVSCKASGYTFTSDHISWVRQAPGQGLEWMGWISPHHGKTNYAQKLQGRVTMTTDTSTSTAYMELRSLRSDDTAVYYCARVQMDSEYYDLLTGINVGPYYFDYWGKGTLVTVSSGGGGSGGGGSGGGGSSELTQDPAVSVALGQTVRITCQGDSLRSYYASWYQQKPGQAPVLVIYGKNNRPSGIPDRFSGSSSGNTASLTITGAQAEDEADYYCNSRDSSGNHVVFGGGTKLTVLG , can you help?
Result block: binds

Query block: Looking for the measured binding result of I050A12 (scFv) scFv: EVQLVQSGAEVKKPGSSVKVSCKASGDTFSHYAINWVRQAPGQGLEWMGGIIPTFNAVKYAQKFQGRATITADGSTSTAYMELNSLRSEDTAVYYCATAPYDLLTHYFHYFDYWGQGTMVTVSSGGGGSGGGGSGGGGSALSSELTQDPAVSVTLGQTVRITCQGDSLRSYYPSWYQQKPGQAPVLVIYPKNIRPSGIPDRFSGSSSGNTASLTITGAQAEDEADYYCNSRASSGNHYVFATGTKLTVLG , can you help?
Result block: binds

Query block: Looking for the measured binding result of I018D07 (scFv) scFv: GVQLVQSGPEVKKPGASVIVSCTASGYTFTSYGVSWVRQAPGQGLEWIGWISAHNGQTKYAEKFQGRVTMTRNTSISTAYMELSSLRSEDTAVYYCARDGSYDILTGYYIDNYMDVWGKGTMVTVSSGGGGSGGGGSGGGGSSELTQDPAVSVALGQTVRITCQGDSLRSYYTNWFQQKPGQAPLLVVYAKNKRPSGIPDRFSGSSSGNTASLTITGAQAEDEADYYCHSRDSSGNHVLFGGGTKLTVLG , can you help?
Result block: binds

Switching to the query record.
Query block: Looking for the measured binding result of I031G10 (scFv) scFv: QVQLVQSGAEVKKPGSSVKVSCRVSGGSFTDDSINWLRQAPGQGLEWVGGTIPLANRANYAQKFRDRVTITADELTATVFLELTSLRSDDTALYYCARSSPPKWYDALTGDSSYHSAMDVWGRGTLVTVSSGGGGSGGGGSGGGGSAQSVVTQPPSVSAAPGQKVTISCSGSTSNIGRNYVSWYQQLPGTATKLLIYDNNKRPSGIPDRFSGSKSGTSATLGITGLQTGDEADYYCGTWDSSLRIYVFGTGTKVTVLG , can you help?
Result block: binds
